Cited source: PubChem BioAssay (NCI)

Tested on: TK-10 renal
experimental_details: NCI-60 one-dose screen, 48 h (100 = growth as untreated, 0 = no growth, -100 = all killed)
assay_context: 10 µM unless noted
The panel holds about 83,000 compounds, 20% with a hit somewhere; the sample as a whole holds those more often.
Quick rule: growth of at least 90% means 1 (yes), below that means 0 (no).

compound	assigned_category
O=C(CCl)c1ccc([N+](=O)[O-])o1	0 (no)
CCCCN1CCCC[C@@H]1C(=O)N[C@H](C(=O)N(C)[C@H](CCc1nc(C(=O)N[C@@H](Cc2ccccc2)C[C@H](C)C(=O)OC)cs1)C(C)C)[C@@H](C)CC	0 (no)
C[Se]C(=O)c1ccccc1OC(C)=O	0 (no)
O=C(c1cccc(O)c1O)c1cn(Cc2ccc(F)cc2)c2cccc(O)c12	0 (no)
O=C1CNC(c2ccccc2)c2cc(Cl)ccc2N1 (stereo unspecified)	1 (yes)
CN[C@@]1(c2ccccc2Cl)CCCC[C@@H]1NCC1CCCO1 (stereo partly specified)	1 (yes)
CCOC(=O)CCC(NC(=O)C(Cc1ccc(N(CCCl)CCCl)cc1)NC=O)C(=O)OCC (stereo unspecified)	1 (yes)
Cc1cccc(N2CCN(C(C)C#N)CC2)c1 (stereo unspecified)	1 (yes)
CC(C)=CCC[C@H](C(=O)O)[C@@H]1CC[C@]2(C)C3=C(CC[C@@]12C)[C@@]1(C)CC[C@H](O)C(C)(C)[C@@H]1CC3	1 (yes)
CCC1(C)CC(CCNCc2ccccc2O)(c2ccc(C)cc2)CCO1 (stereo unspecified)	1 (yes)
COc1cccc2c1c(C(=O)c1ccco1)cn2Cc1ccc(F)cc1	1 (yes)
CC(C)=CCc1c(O)c(C(=O)CC(C)C)c(O)c2c(-c3ccccc3)cc(=O)oc12	0 (no)
CN(C)C(=O)Oc1ccc(Br)cc1	1 (yes)
C=CC[PH+](c1ccccc1)c1ccccc1.C=CC[PH+](c1ccccc1)c1ccccc1.[Cl][Pt][Cl]	0 (no)
C=CCCCN=C=S	0 (no)
Nc1nc([Se])c2ncn(C3OC(CO)C(O)C3O)c2n1 (stereo unspecified)	0 (no)
NC(CCl)CCl	1 (yes)
Cc1ccc2c(C(C[N+](=O)[O-])c3cccs3)c(-c3ccccc3)[nH]c2c1 (stereo unspecified)	0 (no)
